Test system: CCKB receptor (Mus musculus, UniProt P56481)
Construct: The cortex was dissected, weighed and homogenised in 40 ml ice-cold buffer; from tissue; host or cells: cerebral cortex membranes of male CD1 mice (Charles River)
Sequence (P56481 whole entry): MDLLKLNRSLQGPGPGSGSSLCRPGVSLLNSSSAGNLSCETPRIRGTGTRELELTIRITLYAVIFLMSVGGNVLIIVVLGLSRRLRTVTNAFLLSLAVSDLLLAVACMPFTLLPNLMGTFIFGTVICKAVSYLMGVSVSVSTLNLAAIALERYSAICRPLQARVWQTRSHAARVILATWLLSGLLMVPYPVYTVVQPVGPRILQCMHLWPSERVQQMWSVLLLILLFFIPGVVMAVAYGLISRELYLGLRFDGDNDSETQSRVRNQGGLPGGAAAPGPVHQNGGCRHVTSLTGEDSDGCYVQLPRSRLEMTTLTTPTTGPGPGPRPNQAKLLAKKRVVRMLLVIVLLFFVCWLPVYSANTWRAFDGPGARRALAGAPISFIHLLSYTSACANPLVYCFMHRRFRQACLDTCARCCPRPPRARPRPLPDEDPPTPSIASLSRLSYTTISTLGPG
Method notes: radioligand binding assay at the CCKB receptor in mouse cortical membranes ([125I]-CCK8S)
Reported conditions: 150 min at 21±3°, read-out: CCKB pKi (converted)
Property: Ki (nM)
Please respond with the number in nM and leave the unit unwritten.

| Compound | Test system | Ki, nM |
| --- | --- | --- |
| COC(=O)[C@H](C)NC(=O)C1C2C(C)=C(C)C(c3ccccc32)C1C(=O)NCC12CC3CC(CC(C3)C1)C2 (stereo partly shown) | CCKB receptor (Mus musculus, UniProt P56481) | 398 |
| COC(=O)[C@H](C)NC(=O)C1C2C=CC(c3ccccc32)C1C(=O)NCC12CC3CC(CC(C3)C1)C2 (stereo partly shown) [Example 8] | CCKB receptor (Mus musculus, UniProt P56481) | 631 |
| COC(=O)[C@H](C)NC(=O)C1C2C=CC(CC2)C1C(=O)NCC12CC3CC(CC(C3)C1)C2 (stereo partly shown) | CCKB receptor (Mus musculus, UniProt P56481) | 10000 |

From here, focus on the item given below.
The value of Ki recorded for O=C(NCC12CC3CC(CC(C3)C1)C2)[C@@H]1[C@H](C(=O)O)[C@@H]2C=C[C@H]1c1ccccc12 (relative stereo) when tested on CCKB receptor (Mus musculus, UniProt P56481) reads 3980
